assay: gradient 5% acetonitrile 3 min, to 50% in 2 min, to 85% in 15 min, held 3 min, 100 µL/min; settings: column: Zorbax Extend-C18 2.1 x 50 mm; eluents: water / acetonitrile, 0.1% formic acid
Each record gets a class by RP-LC retention time: low = under 600 s, moderate = from 600 s up to 700 s, high = 700 s and over

Exercise: Class label required: CCn1c(=O)sc2cc(S(=O)(=O)N3CCC(C(=O)Nc4ccccn4)CC3)ccc21
Solution: high

Exercise: Class label required: CCCn1c(CCNC(=O)c2ccc(OC)cc2)nc2cccnc21
Solution: moderate

Exercise: Class label required: CCOC(=O)C1=C(C)NC2=C(C(=O)C(C(=O)OC)C(C)C2)C1c1ccc(N(C)C)cc1 (stereo not given)
Solution: moderate

Exercise: Class label required: Cc1cc2n(n1)CCC(=O)N2CCCC(=O)NCCCN1CCCC(C)C1 (stereo not given)
Solution: low

Exercise: Class label required: Cn1c(=O)c(N2CCCC(C(=O)NCCc3ccco3)C2)nc2cccnc21 (stereo not given)
Solution: high

Exercise: Class label required: COc1cccc(-c2ccc(=O)n(CCc3nc(-c4cccc(OC)c4OC)no3)n2)c1
Solution: high

Exercise: Class label required: CCn1nc(C)c(CCN(C)C(=O)c2cc3c(s2)N(C)CCCC3)c1C
Solution: high

Exercise: Class label required: CC(C)NC(=O)c1cc2c(s1)N(CC1CC1)CCCC2
Solution: high

Exercise: Class label required: COc1ccc(NC(=O)N2C[C@@H]3C[C@H]2C[C@@H]3NC(=O)c2cccs2)cc1F
Solution: high

Exercise: Class label required: COc1cccc(CCC(=O)N2C[C@@H]3C[C@H](NC(=O)c4cccs4)[C@H]2C3)c1
Solution: high

Exercise: Class label required: CCCCOc1ccc(CNC(=O)CSc2nccnc2Oc2ccccc2)cc1
Solution: high

Exercise: Class label required: CCC(c1cccs1)N1C(=O)[C@H]2CN(S(=O)(=O)c3ccc(F)cc3F)C[C@H]2C1=O (stereo not given in full)
Solution: high

Exercise: Class label required: COCCN(CCNC(=O)C1Cn2cccc2C(=O)N1C)Cc1ccco1 (stereo not given)
Solution: low

###

assay: gradient 5% acetonitrile 3 min, to 50% in 2 min, to 85% in 15 min, held 3 min, 100 µL/min; conditions: column: Zorbax Extend-C18 2.1 x 50 mm; eluents: water / acetonitrile, 0.1% formic acid
Exercise: state measured RP-LC retention time for each of the compounds provided.
The reply should contain only the number, in s.

Exercise: Determine from records and report RP-LC retention time for Oc1ccc(-c2ccc(F)cc2)cc1CN1CCCCCC1
Solution: 694

Exercise: Determine from records and report RP-LC retention time for CC(=O)Nc1ccc(S(=O)(=O)N2CCC(CN3CCCCCC3)CC2)cc1
Solution: 588

Exercise: Determine from records and report RP-LC retention time for CC1CCN(C(=O)c2cc(S(=O)(=O)N(C)CC(=O)NC(C)C)cn2C)CC1
Solution: 723

Exercise: Determine from records and report RP-LC retention time for O=C(Cc1cccs1)N1CCN(C(=O)c2cc3ccccc3[nH]2)CC1
Solution: 767

Exercise: Determine from records and report RP-LC retention time for CCc1ccc(CNC(=O)Cn2cc(-c3nnco3)c3ccccc32)cc1
Solution: 866

Exercise: Determine from records and report RP-LC retention time for CCOC(=O)c1cccc(Nc2c(-c3ccc(SC)cc3)nc3cnccn23)c1
Solution: 950

Exercise: Determine from records and report RP-LC retention time for O=C(CCc1nc(CSc2nnc(-c3ccccc3)o2)no1)Nc1ccccc1F
Solution: 870

Exercise: Determine from records and report RP-LC retention time for Cn1c(=O)oc2cc(-c3noc(-c4ccc(C(C)(C)C)cc4)n3)ccc21
Solution: 1310

Exercise: Determine from records and report RP-LC retention time for CCOc1cccc(-c2noc(Cn3ncn4nc(-c5cccs5)cc4c3=O)n2)c1
Solution: 1140

Exercise: Determine from records and report RP-LC retention time for COC(=O)c1c(N)n(-c2cccc(F)c2)c2nc3ccccc3nc12
Solution: 685

###

assay: gradient 5% acetonitrile 3 min, to 50% in 2 min, to 85% in 15 min, held 3 min, 100 µL/min; details: column: Zorbax Extend-C18 2.1 x 50 mm; eluents: water / acetonitrile, 0.1% formic acid
Exercise: state measured RP-LC retention time for each of the compounds provided.
The reply should contain only the number, in s.

Exercise: Determine from records and report RP-LC retention time for Cc1ccc(-c2nnc(C)c(NC3CC3)n2)cc1
Solution: 644

Exercise: Determine from records and report RP-LC retention time for O=C(NCc1ccc2c(c1)OCO2)C1CCN(C(=O)c2ccc(-c3noc(C4CC4)n3)cc2)CC1
Solution: 796

Exercise: Determine from records and report RP-LC retention time for CC(C)=CCC/C(C)=C/CNCCNC1C2CC3CC(C2)CC1C3 (stereo not given)
Solution: 624

Exercise: Determine from records and report RP-LC retention time for COc1ccc(OC)c(NC(=O)Nc2c(-c3cccc(C)c3)nc3ccccn23)c1
Solution: 696

Exercise: Determine from records and report RP-LC retention time for O=C(Nc1nnc(SCc2nnc(-c3ccccc3)o2)s1)c1ccccc1
Solution: 866

Exercise: Determine from records and report RP-LC retention time for COc1ccc(Cl)cc1NC(=O)Cc1csc2nc(-c3ccccc3)cn12
Solution: 902

Exercise: Determine from records and report RP-LC retention time for CCOC(=O)N1CCN(Cc2nc(-c3ccc(N4CCC(C)CC4)nc3)no2)CC1
Solution: 847

Exercise: Determine from records and report RP-LC retention time for O=C(NCc1ccc(N2CCOCC2)cc1)c1cccc2c1CCN2C(=O)C1CC1
Solution: 735

Exercise: Determine from records and report RP-LC retention time for CCc1ccc(N2CC(c3noc(-c4ccc(C)cc4)n3)CC2=O)cc1 (stereo not given)
Solution: 1170

Exercise: Determine from records and report RP-LC retention time for CC(=O)Nc1ccc(S(=O)(=O)N2CCN(c3cnn4c(C)nnc4c3)CC2)cc1
Solution: 593

###

Exercise: state measured RP-LC retention time for each of the compounds provided.
assay: gradient 5% acetonitrile 3 min, to 50% in 2 min, to 85% in 15 min, held 3 min, 100 µL/min; conditions: column: Zorbax Extend-C18 2.1 x 50 mm; eluents: water / acetonitrile, 0.1% formic acid
The reply should contain only the number, in s.

Exercise: Determine from records and report RP-LC retention time for CCOc1ccc(-c2nc3ncccn3c2NCc2ccccc2OC)cc1OC
Solution: 739

Exercise: Determine from records and report RP-LC retention time for Cc1ccc(NC(=O)CSc2ccc(N3CCCC(C(=O)NC4CC4)C3)nn2)c(Cl)c1 (stereo not given)
Solution: 705

Exercise: Determine from records and report RP-LC retention time for O=S(=O)(c1ccc(Cl)cc1)N1CCc2nc(-c3ccc(Cl)cc3)ncc2C1
Solution: 1270

Exercise: Determine from records and report RP-LC retention time for COc1ccc(C2CCCCCN2S(C)(=O)=O)cc1 (stereo not given)
Solution: 932

Exercise: Determine from records and report RP-LC retention time for O=C(NCc1ccc2c(c1)OCO2)c1nnc(-c2ccc(S(=O)(=O)N3CCCCC3)cc2)o1
Solution: 948

Exercise: Determine from records and report RP-LC retention time for CC(C)N1CCn2c(nc3cc(C(=O)NCc4ccccc4C(F)(F)F)ccc32)C1=O
Solution: 768

Exercise: Determine from records and report RP-LC retention time for O=C(c1cccnc1)N1CCC(n2nc(-c3ccsc3)ccc2=O)CC1
Solution: 650

Exercise: Determine from records and report RP-LC retention time for CC(C)n1c(N2CCN(C(=O)c3ccccn3)CC2)cc(=O)n(C(C)C)c1=O
Solution: 709

Exercise: Determine from records and report RP-LC retention time for CCN(CC)S(=O)(=O)c1ccc(C)c(-c2nnc(-c3ccc(Cl)cc3)o2)c1
Solution: 1200

Exercise: Determine from records and report RP-LC retention time for Cn1nc(-c2nnc(-c3ccccc3F)o2)c2c1CCN(S(=O)(=O)c1ccccc1Cl)C2
Solution: 928

Exercise: Determine from records and report RP-LC retention time for Cc1noc(C)c1CCC(=O)N1CC(c2nc3ccccc3[nH]2)C1
Solution: 552

Exercise: Determine from records and report RP-LC retention time for CCCOc1nc2c(c(=O)n(C)c(=O)n2C)n1C
Solution: 788

Exercise: Determine from records and report RP-LC retention time for CC(C)CN1CCn2cc(S(=O)(=O)NCc3ccccc3Cl)cc2C1=O
Solution: 818

Exercise: Determine from records and report RP-LC retention time for O=C(Cn1ccc2ccc(N3CCOCC3)nc21)NCc1ccccc1Br
Solution: 886

Exercise: Determine from records and report RP-LC retention time for COc1cc(/C=C(\C)c2ccc3c(c2)OCO3)cc(OC)c1OC
Solution: 1030

Exercise: Determine from records and report RP-LC retention time for COc1ccc(-c2cn3cccnc3n2)cc1NC(=O)c1ccc(F)c(F)c1
Solution: 718

Exercise: Determine from records and report RP-LC retention time for CCOc1ccc(NC(=O)C2CCCN(c3nc4ccccc4nc3C(F)(F)F)C2)cc1 (stereo not given)
Solution: 1210

Exercise: Determine from records and report RP-LC retention time for Cc1ccc(NC(=O)C2(c3ccc4c(c3)OC(F)(F)O4)CC2)nc1-c1cccc(C(=O)O)c1
Solution: 1130

Exercise: Determine from records and report RP-LC retention time for CC(=O)N1CCC(C(=O)N2CCCCCCNC(=O)[C@@H]3CCCC[C@@H]32)CC1
Solution: 657

Exercise: Determine from records and report RP-LC retention time for CCn1c(=O)c2c(nc3n2CC(C)CN3C2CCCCC2)n(C)c1=O (stereo not given)
Solution: 828

Cited source: the METLIN SMRT retention time set (Domingo-Almenara et al. 2019)
